For each record, write down the corresponding IC50.
Biological target: Her2 exon 20 YVMA insertion (A775_G776ins YVMA) (Homo sapiens (Human), UniProt P04626, INS775YVMA)
Sequence (P04626 other isoform, or with tags, fused parts or gaps ins YVMA behind 775): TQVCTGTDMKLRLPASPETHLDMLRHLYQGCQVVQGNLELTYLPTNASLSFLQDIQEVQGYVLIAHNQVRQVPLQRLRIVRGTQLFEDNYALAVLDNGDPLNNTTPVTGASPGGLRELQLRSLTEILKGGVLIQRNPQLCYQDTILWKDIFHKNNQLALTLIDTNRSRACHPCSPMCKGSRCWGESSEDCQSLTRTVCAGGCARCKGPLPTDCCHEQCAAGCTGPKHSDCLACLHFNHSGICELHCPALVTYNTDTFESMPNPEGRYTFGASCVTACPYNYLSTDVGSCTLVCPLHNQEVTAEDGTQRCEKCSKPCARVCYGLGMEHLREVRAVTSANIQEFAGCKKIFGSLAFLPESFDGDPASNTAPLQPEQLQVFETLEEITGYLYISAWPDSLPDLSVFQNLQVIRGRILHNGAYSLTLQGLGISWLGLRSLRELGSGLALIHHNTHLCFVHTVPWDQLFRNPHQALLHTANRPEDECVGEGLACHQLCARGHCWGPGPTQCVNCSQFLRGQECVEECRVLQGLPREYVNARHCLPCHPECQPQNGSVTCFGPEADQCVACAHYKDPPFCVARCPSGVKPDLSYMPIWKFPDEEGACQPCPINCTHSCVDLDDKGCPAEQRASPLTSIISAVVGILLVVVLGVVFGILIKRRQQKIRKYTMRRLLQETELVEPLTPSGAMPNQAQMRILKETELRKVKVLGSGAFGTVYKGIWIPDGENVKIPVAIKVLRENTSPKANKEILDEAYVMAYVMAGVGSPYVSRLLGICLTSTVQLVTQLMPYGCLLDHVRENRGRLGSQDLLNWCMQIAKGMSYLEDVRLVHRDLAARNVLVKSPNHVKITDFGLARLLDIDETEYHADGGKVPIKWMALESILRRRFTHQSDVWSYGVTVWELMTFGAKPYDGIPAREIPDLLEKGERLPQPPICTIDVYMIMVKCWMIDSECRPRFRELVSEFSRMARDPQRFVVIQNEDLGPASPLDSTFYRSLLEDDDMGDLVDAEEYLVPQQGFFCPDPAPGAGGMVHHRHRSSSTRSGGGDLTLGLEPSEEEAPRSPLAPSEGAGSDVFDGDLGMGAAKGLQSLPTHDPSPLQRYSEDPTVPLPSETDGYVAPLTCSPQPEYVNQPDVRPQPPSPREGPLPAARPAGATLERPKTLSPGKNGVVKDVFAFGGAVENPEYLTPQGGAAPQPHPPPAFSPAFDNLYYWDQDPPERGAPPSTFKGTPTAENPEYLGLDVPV
Test: Ba/F3-Her2 Exon20 YVMA cell anti-proliferative assay (CellTiter 96 MTS, 72 h)
Details: Ba/F3-Her2 Exon20 YVMA cells

Ask | Fill in: IC50 of C=CC(=O)Nc1cc(Nc2ncc(C(=O)OC)c(-c3cn(N(C)C)c4ccccc34)n2)c(OC)cc1N(C)CCN(C)C [Example 76] is ___
Reply | < 100 nM

Ask | Fill in: IC50 of C=CC(=O)Nc1cc(Nc2ncc(C(=O)OCC3CC3)c(-c3cn(C)c4ccccc34)n2)c(OC)cc1N(C)CCN(C)C [Example 13] is ___
Reply | < 100 nM

Ask | Fill in: IC50 of C=CC(=O)Nc1cc(Nc2ncc(NC(=O)CC)c(-c3nn(C)c4ccccc34)n2)c(OC)cc1N(C)CCN(C)C [Example 60] is ___
Reply | > 1000 nM

Ask | Fill in: IC50 of C=CC(=O)Nc1cc(Nc2ncnc(-c3c(C4CCOCC4)n(C)c4ccccc34)n2)c(OC)cc1N(C)CCN(C)C [Example 4] is ___
Reply | 100 to 500 nM

Ask | Fill in: IC50 of C=CC(=O)Nc1cc(Nc2ncnc(-c3c(-c4ccccc4)n(C)c4ccccc34)n2)c(OC)cc1N(C)CCN(C)C [Example 3] is ___
Reply | 100 to 500 nM

Ask | Fill in: IC50 of C=CC(=O)Nc1cc(Nc2ncc(C(=O)OCC)c(-c3cn(C)c4ccccc34)n2)c(OC)cc1N(C)C[C@H]1CCCN1C [Example 65] is ___
Reply | < 100 nM

Ask | Fill in: IC50 of C=CC(=O)Nc1cc(Nc2ncc(Cl)c(-c3cn(C)c4ccccc34)n2)c(OC)cc1C#CCN(C)C [Example 45] is ___
Reply | 500 to 1000 nM
